Provide the recorded Selectivity fold (TYK2/JAK2) for the entries that follow.
# Test system: JAK2, TYK2/p-STAT4 (Tyr693) activated by IL-12 in NK-92 cell line
# EXPERIMENT NOTES: IL-12-JAK2, TYK2/p-STAT4 (Tyr693) inhibition IC50 cellular assay
# Format: cell-based
# SETUP CONDITIONS: Cellular assay; pSTAT5/GM-CSF IC50 vs pSTAT4/IL-12 IC50
# Description: Assay C: IL-12-JAK2, TYK2/p-STAT4 (Tyr693) Inhibition IC50 Cellular Assay To evaluate the inhibition effect of compounds disclosed herein on JAK2, TYK2/p-STAT4 (Tyr693) activated by IL-12 in NK-92 cell line, NK-92 cells were collected and washed 3 times by DPBS and resuspended in MEM-α (GIBCO, Cat #12561056) with 10% FBS (Gibco, Cat #10099, Lot #1891605), without IL-2 (R&D systems, Cat #202-IL), starved overnight. […] Read on BMG PheraStar with Alphascreen protocol. […]
Answers are plain numbers, in fold.

Field request: Selectivity fold (TYK2/JAK2) | item: CC(=O)Nc1cc(Nc2cccc(S(C)(=O)=O)n2)c(-c2ccc(N3C[C@@H](C)O[C@@H](C)C3)cn2)cn1 [Example C2]
3083

Would you kindly repeat that for CC(=O)Nc1cc(Nc2cc(OCCO)cc(S(C)(=O)=O)n2)c(-c2ccc(OC3CCOC3)cn2)cn1 (stereo not shown) [Example B22] ?
197

***
Field request: Selectivity fold (TYK2/JAK2) | item: CC(=O)Nc1cc(Nc2cc(OC(C)C)cc(S(C)(=O)=O)n2)c(-c2ccc(N3CC4CC3CO4)cn2)cn1 (stereo not shown) [Example B16]
8366
